The reported measurements were obtained from patent US8513260B2.

# EXPERIMENTAL_DETAILS: logP by HPLC on reversed-phase columns (C 18), EEC Directive 79/831 Annex V.A8
# Assay type: physicochemical
# TEST_CONDITIONS: reversed-phase C18 HPLC column, pH 7.8, *** LC-MS, neutral range pH 7.8, 0.001 molar aqueous ammonium hydrogencarbonate and acetonitrile; read-out: log P
ATTRIBUTE_MEASURED: chromatographic logP
Give the figure only, with no unit attached.

Which measured chromatographic logP value corresponds to COc1nccnc1-n1nc(C(F)(F)F)c(-c2ccc(Br)cc2)c1N [Ex. 2] ? 3.4

----------
# pest or weed control at 100 ppm listing for each entry below
# Tested on: adult engorged Boophilus microplus females of the SP-resistant Parkhurst strain
# EXPERIMENTAL_DETAILS: Boophilus microplus (dip)
# Assay type: in vivo
# TEST_CONDITIONS: Rhipicephalus microplus, 168 h, after 7 days, laying of fertile eggs, read-out: efficacy
Respond with the bare value in %.

COc1cc(-c2c(C(F)(F)C(F)(F)F)nn(-c3nccnc3OC)c2N)cc(Cl)c1OC [Ex. 51]; 100

Which measured pest or weed control at 100 ppm value corresponds to COc1nccnc1-n1nc(C(F)(F)F)c(-c2cc(C(F)(F)F)cc(C(F)(F)F)c2)c1N [Ex. 14] ? 90

Entry CCOc1nccnc1-n1nc(C(F)(F)F)c(-c2ccc(Br)cc2)c1N [Ex. 5] please 100

Entry COc1nccnc1-n1nc(C(F)(F)F)c(-c2cc(Cl)c3c(c2)OCO3)c1N [Ex. 48] please 100

----------
# EXPERIMENTAL_DETAILS: logP by HPLC on reversed-phase columns (C 18), EEC Directive 79/831 Annex V.A8
# Format: physicochemical
# TEST_CONDITIONS: * LC-MS, acidic range pH 2.7, 0.1% aqueous formic acid and acetonitrile
ATTRIBUTE_MEASURED: log P

These solved cases illustrate the format of a correct answer.
CCOc1nccnc1-n1nc(C(F)(F)F)c(-c2cc(Cl)cc(C(F)(F)F)c2)c1N(Cc1ccccc1)Cc1ccccc1 [Ex. 34]; 7*
CCOc1cc(-c2c(C(F)(F)F)nn(-c3nccnc3OC)c2N)cc(Br)c1OCC(F)(F)F [Ex. 140]; 4.3*
COc1cc(-c2c(C(F)(F)F)nn(-c3nccnc3OC)c2N)cc(I)c1OC [Ex. 176]; 3.87*
COc1nccnc1-n1nc(C(F)(F)F)c(-c2cc(Cl)cc(C(F)(F)F)c2)c1N(C)C [compound 107]; 5.11*

Which measured log P value corresponds to CSc1nccnc1-n1nc(C(F)(F)F)c(-c2cc(Cl)cc(C(F)(F)F)c2)c1N [Ex. 28] ? 4.9*

----------
# pest or weed control at 500 g/ha listing for each entry below
# Test system: green peach aphid (Myzus persicae)
# EXPERIMENTAL_DETAILS: Myzus test (MYZUPE spray treatment)
# Format: in vivo
# TEST_CONDITIONS: Myzus persicae, 144 h, Chinese cabbage discs, after 6 days, read-out: efficacy
# Procedure: Myzus Test (MYZUPE Spray Treatment) Solvent: 78 parts by weight of acetone • • 1.5 parts by weight of dimethylformamide Emulsifier: 0.5 part by weight of alkylaryl polyglycol ether To prepare an appropriate active ingredient preparation, 1 part by weight of active ingredient is mixed with the stated amounts of solvent and emulsifier, and the concentrate is diluted with emulsifier-containing water to the desired concentration. […] After 6 days, the efficacy in % is determined. […]
Respond with the bare value in %.

These solved cases illustrate the format of a correct answer.
COc1nccnc1-n1nc(C(F)(F)F)c(-c2cc(F)c3c(c2)OCO3)c1N; 100
COc1nccnc1-n1nc(C(F)(F)F)c(-c2cc(Br)cc(Br)c2)c1N; 100
CCc1nn(-c2nccnc2OC)c(N)c1-c1cc(Cl)c2c(c1)OCO2; 80
COc1nccnc1-n1nc(C)c(-c2cc(Cl)c3c(c2)OCO3)c1N; 100

Now examine the next entry.
Which measured pest or weed control at 500 g/ha value corresponds to `COc1nccnc1-n1nc(C(F)(F)F)c(-c2cc(C#N)c3c(c2)OCO3)c1N` ? 100
